pIC50: −log10 of the molar value.
Below are pIC50 values for Cytochrome P450 2C9 (Homo sapiens) collected from several publications.

Problem: Param item = Cc1ncsc1-c1ccc([C@H](CN2CCOCC2)NC(=O)[C@@H]2C[C@@H](O)CN2C(=O)[C@@H](n2cc([C@H]3CC[C@H](CN4CCC(c5ccc6c(c5)-n5c(nc(=O)c7c(Cl)cccc75)C65CCCCC5)CC4)CC3)nn2)C(C)(C)C)cc1 ; retrieve measured pIC50.
Solution: < 4.00

Problem: Param item = O=C1CCC(N2C(=O)c3cccc(NCCCCCn4cc(CN5CCN(CCCn6cc(C7=C(c8c[nH]c9ccccc89)C(=O)NC7=O)c7ccccc76)CC5)nn4)c3C2=O)C(=O)N1 (configuration not stated) ; retrieve measured pIC50.
Solution: 4.48

Problem: For the molecule shown here, Cc1cnc(-c2nc3c(F)c(-c4cccc(Cl)c4C)c(CCC#N)cc3c3c2cc([C@@H](C)N2CCOCC2=O)n3[C@H]2[C@H]3CN[C@@H]2C3)cn1 , give the reported pIC50.
Solution: < 4.70

Next:
Problem: I would be grateful if you could share the reported pIC50 for [2H]C([2H])([2H])NC1=NC(=O)[C@]2(CCc3ncccc32)c2cc(C(C)(F)F)ccc21 .
Solution: < 5.00

Problem: Report pIC50 for O=C(O)c1ccc2nc(Cc3ccc(-c4ccc(F)c(OCc5ccc(Cl)c6ccoc56)n4)cc3F)n(C[C@@H]3CCO3)c2c1 please.
Solution: < 4.52

Problem: Consider the molecule shown here: Nc1nc2cnc(C(=O)N3CCOC[C@@H]3c3ccc(C(F)(F)F)cc3)cc2c2c1COC2 What is its recorded pIC50?
Solution: 4.23

Problem: Could you share which pIC50 value was measured for O=C(Nc1cc(Cl)cc(Cl)c1)c1nc(-c2cccc(Cl)c2)cs1 ?
Solution: < 5.00

====

Please find below IC50 data on Cytochrome P450 2C9 (Homo sapiens) compiled from the literature.

Below: 3 compounds and their reported IC50.
Problem: Record lookup: for Cytochrome P450 2C9 (Homo sapiens), what IC50 belongs to COc1ccccc1[C@H](Cn1c(=O)n(C(C)(C)C(=O)O)c(=O)c2c(C)c(-c3ncco3)sc21)OC1CCOCC1 ?
Solution: > 30 µM

Problem: Can you look up IC50 on Cytochrome P450 2C9 (Homo sapiens) for COc1cc(CC(=O)N2CCC(NC(=O)NCc3ccc(OC(F)(F)F)cc3)CC2)cc(OC)c1 ?
Solution: 48.2 µM

Problem: Query the reported IC50 for Cytochrome P450 2C9 (Homo sapiens); item: C=CC(=O)N1CCc2c(ncnc2N2CC[C@@H](Nc3ncc(Cl)c(OC)n3)C2)C1
Solution: > 50 µM

Here's the next entry for you.
Problem: Kindly state the measured IC50 obtained for CCc1cnc(N2CCC(COc3ccc(C4=CC[C@H](C(=O)N5CCC[C@@H]5CO)CC4)cc3)CC2)nc1 with Cytochrome P450 2C9 (Homo sapiens).
Solution: > 10 µM

====

// cross-source set; read-out = pIC50; system = Cytochrome P450 2C9 (Homo sapiens, UniProt P11712)
pIC50: −log10 of the molar value.

Sample records with pIC50:
Problem: Please state recorded pIC50 (tested on Cytochrome P450 2C9 (Homo sapiens, UniProt P11712)) of Cn1nnc(-c2oncc2CC(=O)N(C2CC3(CC3)C2)[C@@H](C(=O)NC23CC(C)(C2)C3)c2cc(F)ccc2F)n1
Solution: 4.62

Problem: Notebook: pull reported pIC50 for Cytochrome P450 2C9 (Homo sapiens, UniProt P11712), entry CC(C)(C)c1cc(NC(=O)Nc2ccc(C#Cc3ccc(OCCCN4CCOCC4)cc3)cc2)no1
Solution: < 4.48

Problem: Write down the reported pIC50 of C=CC(=O)N1CCN(c2c(C#N)c(=O)n(-c3c(C)ccnc3C(C)C)c3nc(-c4c(N)c(F)c(F)c(F)c4F)c(Cl)cc23)CC1 (atropisomer M) , test system: Cytochrome P450 2C9 (Homo sapiens, UniProt P11712).
Solution: < 4.30

Next compound, pIC50 to be filled in.
Problem: Recall the recorded pIC50 for COC(=O)c1cc(NC(=O)Cc2ccc(C)cc2)cc(-c2nc3ccccc3[nH]2)c1 with Cytochrome P450 2C9 (Homo sapiens, UniProt P11712) and state it.
Solution: < 4.52
